protein stability index listing for selected variants.
B1: CDKL4 (parent)
chain: AVKKFVESEDDPVVKKIALREIRM

- Variants of: B1
- Test name: protein stability index of a GFP-peptide fusion (GPS, HEK-293T) (PSI 1-6); higher = more stable;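 further: lentivirally expressed fusions sorted by FACS into six bins by GFP to DsRed ratio, PSI derived from sequencing read proportions per bin multiplied by bin number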
- Settings: c terminus: a fixed tail appended
Answer field: number only, no words.

Answered cases to consult:
Variant code: E21Y
protein stability index: 2.69
//
Variant code: E21Q
protein stability index: 2.45

Enquiry: Look up protein stability index for this variant: S8M
Return: 3.04

Enquiry: How about D10G ?
Return: 3.07

Enquiry: How about I22P ?
Return: 4.54

Enquiry: How about L19R ?
Return: 2.96
